molecules and their reported IC50
- testTarget: AAK1 (amino acids T27-A365) (Homo sapiens)
- Construct: against AAK1 (amino acids T27-A365); 6His (N, cleaved yes)
- methodNotes: AAK1 pSENs assay
- Format: biochemical
- settings: class symbols; read-out: AAK1 pSENs: EIC50

- molecule: "O=C(O[C@H]1CO[C@H]2OCC[C@H]21)N1CCN(c2ccn3ncc(-c4cccnc4OC4CC4)c3n2)CC1 [Compound I-27]"
  testTarget: "AAK1 (amino acids T27-A365) (Homo sapiens)"
  IC50: "1 to 50 nM"
- molecule: "CN1C[C@@H](OC(=O)N2CCN(c3ccn4ncc(-c5cc(OC(F)(F)F)cnc5OC5CC5)c4n3)CC2)CC1=O [Compound I-88]"
  testTarget: "AAK1 (amino acids T27-A365) (Homo sapiens)"
  IC50: "1 to 50 nM"
- molecule: "O=C1C[C@H](OC(=O)N2CCN(c3ccn4ncc(-c5cccnc5NC5CCC5)c4n3)CC2)CN1 [Compound I-46]"
  testTarget: "AAK1 (amino acids T27-A365) (Homo sapiens)"
  IC50: "> 1500 nM"
- molecule: "CN1C[C@@H](OC(=O)N2CCN(c3ccn4ncc(-c5cccnc5OC5CCOC5)c4n3)CC2)CC1=O (some centres unmarked) [Compound I-119]"
  testTarget: "AAK1 (amino acids T27-A365) (Homo sapiens)"
  IC50: "51 to 150 nM"
- molecule: "O=C1NCC[C@H]1OC(=O)N1CCN(c2ccn3ncc(-c4cccnc4OC4CC4)c3n2)CC1 [Compound I-23]"
  testTarget: "AAK1 (amino acids T27-A365) (Homo sapiens)"
  IC50: "51 to 150 nM"
- molecule: "CC(C)Oc1ncccc1-c1cnn2ccc(N3CCN(C(=O)O[C@@H]4CNC(=O)C4)CC3)nc12 [Compound I-26]"
  testTarget: "AAK1 (amino acids T27-A365) (Homo sapiens)"
  IC50: "1 to 50 nM"
- molecule: "CC1(OC(=O)N2CCN(c3ccn4ncc(-c5cccnc5OCC5CCC5)c4n3)CC2)COC1 [Compound I-19]"
  testTarget: "AAK1 (amino acids T27-A365) (Homo sapiens)"
  IC50: "151 to 500 nM"
- molecule: "CN1C[C@@H](OC(=O)N2CCN(c3ccn4ncc(-c5cc(F)cnc5OC5CC5)c4n3)CC2)CC1=O [Compound I-86]"
  testTarget: "AAK1 (amino acids T27-A365) (Homo sapiens)"
  IC50: "1 to 50 nM"
- molecule: "COc1ncccc1-c1cnn2ccc(N3CCN(C(=O)OC4CCNC4)CC3)nc12 (centres unmarked) [Compound I-5]"
  testTarget: "AAK1 (amino acids T27-A365) (Homo sapiens)"
  IC50: "1 to 50 nM"
- molecule: "CC(C)(C)OC(=O)N1CCC(N2C[C@@H](OC(=O)N3CCN(c4ccn5ncc(-c6cccnc6OC6CC6)c5n4)CC3)CC2=O)CC1 [Compound I-30]"
  testTarget: "AAK1 (amino acids T27-A365) (Homo sapiens)"
  IC50: "51 to 150 nM"
- molecule: "[2H]C([2H])([2H])N1C[C@@H](OC(=O)N2CCN(c3nc4c(-c5cc(F)cnc5OC5CC5)cnn4cc3F)CC2)CC1=O [Compound I-118]"
  testTarget: "AAK1 (amino acids T27-A365) (Homo sapiens)"
  IC50: "1 to 50 nM"
- molecule: "COC(=O)N1CC(Oc2ncccc2-c2cnn3ccc(N4CCN(C(=O)O[C@@H]5CNC(=O)C5)CC4)nc23)C1 [Compound I-58]"
  testTarget: "AAK1 (amino acids T27-A365) (Homo sapiens)"
  IC50: "1 to 50 nM"
- molecule: "CN(CCNc1ccn2ncc(-c3cccnc3OC3CC3)c2n1)C(=O)OC(C)(C)C [Compound I-12]"
  testTarget: "AAK1 (amino acids T27-A365) (Homo sapiens)"
  IC50: "1 to 50 nM"
- molecule: "CN1C[C@@H](OC(=O)N2CCN(c3nc4c(-c5cccnc5OC5CCOCC5)cnn4cc3F)CC2)CC1=O [Compound I-122]"
  testTarget: "AAK1 (amino acids T27-A365) (Homo sapiens)"
  IC50: "51 to 150 nM"

----------
- testTarget: AAK1 (amino acids T27-A365) (Homo sapiens, UniProt Q2M2I8)
- Construct: against AAK1 (amino acids T27-A365); 6His (N, cleaved yes)
- Sequence (Q2M2I8 27-365): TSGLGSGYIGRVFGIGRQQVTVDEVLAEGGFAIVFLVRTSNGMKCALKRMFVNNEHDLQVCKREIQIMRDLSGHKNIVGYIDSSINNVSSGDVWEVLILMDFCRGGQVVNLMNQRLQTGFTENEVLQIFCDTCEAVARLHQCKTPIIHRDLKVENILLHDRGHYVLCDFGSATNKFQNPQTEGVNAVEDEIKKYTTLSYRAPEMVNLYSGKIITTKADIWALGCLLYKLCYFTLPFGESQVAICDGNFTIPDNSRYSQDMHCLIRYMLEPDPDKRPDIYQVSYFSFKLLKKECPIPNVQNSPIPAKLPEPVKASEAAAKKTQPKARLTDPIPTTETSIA
- methodNotes: AAK1 pSENs assay
- Type: biochemical
- settings: class symbols; read-out: AAK1 pSENs: EIC50
pIC50: −log10 of the molar value.
molecules and their reported pIC50
assayEndpoint: pIC50

- chemicalStructure: "CC1(OC(=O)N2CCN(c3ccn4ncc(-c5ccc(C(N)=O)cc5)c4n3)CC2)COC1"
  assayEndpoint: "pIC50"
  result: "7.30 to 9.00"
- chemicalStructure: "CC(C)(C)OC(=O)NCCNc1ccc2ncc(-c3cccnc3OC3CC3)n2n1"
  assayEndpoint: "pIC50"
  result: "7.30 to 9.00"
- chemicalStructure: "CN1CC(Oc2ncccc2-c2cnn3ccc(N4CCN(C(=O)O[C@@H]5CNC(=O)C5)CC4)nc23)C1"
  assayEndpoint: "pIC50"
  result: "< 5.82"
- chemicalStructure: "CC1(OC(=O)N2CCN(c3ccn4ncc(-c5cccc(C(N)=O)c5)c4n3)CC2)COC1"
  assayEndpoint: "pIC50"
  result: "6.82 to 7.29"
- chemicalStructure: "C[C@H]1CN(c2ccn3ncc(-c4cccnc4OC4CC4)c3n2)CCN1C(=O)O[C@@H]1CNC(=O)C1"
  assayEndpoint: "pIC50"
  result: "6.30 to 6.82"
- chemicalStructure: "COCCN1C[C@@H](OC(=O)N2CCN(c3ccn4ncc(-c5cc(F)cnc5OC5CC5)c4n3)CC2)CC1=O"
  assayEndpoint: "pIC50"
  result: "7.30 to 9.00"
- chemicalStructure: "CC(=O)N1CC(Oc2ncccc2-c2cnn3ccc(N4CCN(C(=O)O[C@@H]5CNC(=O)C5)CC4)nc23)C1"
  assayEndpoint: "pIC50"
  result: "7.30 to 9.00"

----------
compounds and their reported pIC50
- testTarget: AAK1 (amino acids T27-A365) (Homo sapiens, UniProt Q2M2I8)
- Construct: against AAK1 (amino acids T27-A365); 6His (N, cleaved yes)
- methodNotes: AAK1 pSENs assay
- Format: biochemical
pIC50: −log10 of the molar value.

- chemicalStructure: "Brc1cnn2ccc(N3CCNCC3)nc12"
  pIC50: "< 5.82"
- chemicalStructure: "[2H]C1([2H])N(C(=O)O[C@@H]2CNC(=O)C2)C([2H])([2H])C([2H])([2H])N(c2ccn3ncc(-c4cccnc4OC4CC4)c3n2)C1([2H])[2H]"
  pIC50: "7.30 to 9.00"
- chemicalStructure: "[2H]C1([2H])N(C(=O)O[C@H]2CC(=O)N(C)C2)C([2H])([2H])C([2H])([2H])N(c2ccn3ncc(-c4cccnc4OC4CC4)c3n2)C1([2H])[2H]"
  pIC50: "7.30 to 9.00"

----------
compounds and their reported pIC50
- testTarget: BIKE (amino acids S38-E345) (K320A, K321A) (Homo sapiens, UniProt Q9NSY1, K320A/K321A)
- Construct: against BIKE (amino acids S38-E345) (K320A, K321A); 6His (N, cleaved yes)
- Sequence (Q9NSY1 38-345 K320A/K321A): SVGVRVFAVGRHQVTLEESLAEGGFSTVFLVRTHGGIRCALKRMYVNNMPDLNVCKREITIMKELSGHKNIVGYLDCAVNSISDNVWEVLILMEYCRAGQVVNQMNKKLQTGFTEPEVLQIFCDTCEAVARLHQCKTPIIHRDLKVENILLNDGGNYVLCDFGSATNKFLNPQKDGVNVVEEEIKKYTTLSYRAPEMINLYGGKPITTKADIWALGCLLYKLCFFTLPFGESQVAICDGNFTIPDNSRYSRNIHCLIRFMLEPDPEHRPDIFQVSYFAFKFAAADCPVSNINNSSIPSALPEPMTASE
- methodNotes: BIKE pSENs assay
- Type: biochemical
- settings: class symbols; read-out: BIKE pSENs: IC50
pIC50: −log10 of the molar value.
assayEndpoint: pIC50

- chemicalStructure: "O=C1C[C@H](OC(=O)N2CCN(c3ccn4ncc(-c5cccnc5OC5CC5)c4n3)CC2)CN1CCO"
  result: "6.30 to 6.82"
- chemicalStructure: "COc1ncccc1-c1cnn2ccc(NCCN(C)C(=O)O[C@H]3CO[C@H]4OCC[C@H]43)nc12"
  result: "6.82 to 7.29"
- chemicalStructure: "CN(CCNc1ccn2ncc(-c3cccnc3OC3CC3)c2n1)C(=O)O[C@H]1CO[C@H]2OCC[C@H]21"
  result: "5.82 to 6.30"
- chemicalStructure: "COC(=O)N1CC(Oc2ncccc2-c2cnn3ccc(N4CCN(C(=O)O[C@@H]5CNC(=O)C5)CC4)nc23)C1"
  result: "6.30 to 6.82"

----------
- testTarget: AAK1 (Homo sapiens)
- methodNotes: pAP2M1 cell-based assay (in-cell Western)
- settings: Hela cells co-transfected with AP2M1 and AAK1, 3 hr treatment; class symbols; read-out: AAK1 In-cell Western: IC50
- Description: pAP2M1 Cell-Based Assay (in-Cell Western): The plate was read on Licor Odyssey CLx imaging system (LICOR) to acquire fluorescence intensity at 700 channel and 800 channel. Data analysis: Fluorescence intensity at 700 channel served as internal standard and 800 channel were normalized with 700 channel.
molecules and their reported IC50
assayEndpoint: IC50

- molecule: "O=C1NCC[C@@H]1OC(=O)N1CCN(c2ccn3ncc(-c4cccnc4OC4CC4)c3n2)CC1"
  assayEndpoint: "IC50"
  result: "> 1500 nM"
- molecule: "CC(C)Nc1ncccc1-c1cnn2ccc(N3CCN(C(=O)O[C@@H]4CNC(=O)C4)CC3)nc12"
  assayEndpoint: "IC50"
  result: "> 1500 nM"
- molecule: "CN1CC[C@@](C)(OC(=O)N2CCN(c3ccn4ncc(-c5cccnc5OC5CC5)c4n3)CC2)C1"
  assayEndpoint: "IC50"
  result: "151 to 500 nM"
- molecule: "CC(C)N1C[C@@H](OC(=O)N2CCN(c3ccn4ncc(-c5cccnc5OC5CC5)c4n3)CC2)CC1=O"
  assayEndpoint: "IC50"
  result: "> 1500 nM"
- molecule: "CC(C)Oc1ncccc1-c1cnn2ccc(N3CCN(C(=O)OC4(C)CCNC4)CC3)nc12 (stereo not drawn)"
  assayEndpoint: "IC50"
  result: "151 to 500 nM"
- molecule: "CC(C)(C)OC(=O)N1CCC(N2C[C@H](OC(=O)N3CCN(c4ccn5ncc(-c6cccnc6OC6CC6)c5n4)CC3)CC2=O)CC1"
  assayEndpoint: "IC50"
  result: "> 1500 nM"
- molecule: "CC1(OC(=O)N2CCN(c3ccn4ncc(-c5cccc(C(N)=O)c5)c4n3)CC2)COC1"
  assayEndpoint: "IC50"
  result: "501 to 1500 nM"
- molecule: "O=C1C[C@H](OC(=O)N[C@@H]2CCN(c3ccn4ncc(-c5cccnc5OC5CC5)c4n3)C2)CN1"
  assayEndpoint: "IC50"
  result: "> 1500 nM"
- molecule: "CN(CCN1C[C@@H](OC(=O)N2CCN(c3ccn4ncc(-c5cccnc5OC5CC5)c4n3)CC2)CC1=O)C(=O)OC(C)(C)C"
  assayEndpoint: "IC50"
  result: "> 1500 nM"
- molecule: "COC(=O)N1CC(Oc2ncccc2-c2cnn3ccc(N4CCN(C(=O)O[C@@H]5CC(=O)N(C)C5)CC4)nc23)C1"
  assayEndpoint: "IC50"
  result: "501 to 1500 nM"
- molecule: "CN(C)CCN1CC[C@@](C)(OC(=O)N2CCN(c3ccn4ncc(-c5cccnc5OC5CC5)c4n3)CC2)C1"
  assayEndpoint: "IC50"
  result: "151 to 500 nM"
- molecule: "CC1(OC(=O)N2CCN(c3ccn4ncc(-c5cccnc5OC5CC5)c4n3)CC2)COC1"
  assayEndpoint: "IC50"
  result: "51 to 150 nM"
- molecule: "CC1(OC(=O)N2CCN(c3ccn4ncc(-c5cccnc5OCC5COC5)c4n3)CC2)COC1"
  assayEndpoint: "IC50"
  result: "> 1500 nM"
- molecule: "O=C1C[C@H](OC(=O)N2CCN(c3ccn4ncc(-c5cccnc5OC5COC5)c4n3)CC2)CN1"
  assayEndpoint: "IC50"
  result: "> 1500 nM"
- molecule: "Oc1ncccc1-c1cnn2ccc(N3CCNCC3)nc12"
  assayEndpoint: "IC50"
  result: "> 1500 nM"

FYI, the data here is from patent US20250122207A1.
